System: EKVX NSCLC
Assay: NCI-60 one-dose screen, 48 h
Details: 10 µM unless noted
Compounds without any hit were thinned out: in the full panel of roughly 83,000, 20% have a hit. Active and inactive are the calls of the source. The calls were made as follows: active = growth percent below 10; inactive = the rest.
Outcome codes: yes = active, no = inactive

* COc1cccc(C(Cc2ccccc2)Nc2ccccc2)c1OC (stereo unspecified) | no
* O=C1c2cccnc2C(=O)c2nc3cc(N4CCN(C5CC5)CC4)ccc3nc21 | no
* CC1(C)CN(c2cnc(C(=O)Nc3cc(F)cc4cccnc34)cn2)CCN1 | no
* CSc1nc(O)c(-c2ccccc2)c(=O)[nH]1 | no
* C[C@]12CCc3nc(Nc4cccc(O)c4)sc3C1=CC[C@@H]1[C@@H]2CC[C@]2(C)/C(=N\NC(N)=S)CC[C@@H]12 | no
* COc1ccc(/C=C/C(=O)c2ccc(Nc3ncnc4ccccc34)cc2)cc1OC | no
* O=C(c1ccccc1)N1N=C(c2ccc(-n3ccc(C(F)(F)F)n3)cc2)CC1c1ccc[nH]1 (stereo unspecified) | no
* CCn1ccnc1C(=O)/C=C/c1ccc(CC(=O)Nc2ccc(F)cc2)cc1 | no
* COc1cc(NCC(C)(O)CN(CC(C)C)CC(C)C)c2nc(C)ccc2c1 (stereo unspecified) | no
* Cn1c(=O)c2[nH]c(CCCc3nc4c([nH]3)c(=O)n(C)c(=O)n4C)nc2n(C)c1=O | no
* CCN1C(=O)N(CC)C2NC(SC)=NC21 (stereo unspecified) | no
* COc1ccc(C2CC(n3nnnc3-c3ccccc3)=NN2)cc1 (stereo unspecified) | no
* CCCCCCCCCCCCCCCCCCOc1ccccc1N | no
* COc1ccc(C(O)c2cc3c(N)c(C(=O)Nc4cccc(Br)c4C)sc3nc2C)cc1 (stereo unspecified) | no
* CNC(=O)c1c(NC(=O)c2ccc(C(C)C)cc2)sc2c(CN(C)C)c(O)ccc12 | no
* O=S(=O)(NCCCNc1nccc(-c2c(-c3ccccc3)nc3occn23)n1)c1ccc(Cl)cc1 | no
* C=C(C)[C@@H]1CC[C@]2(CO)CC[C@]3(C)[C@H](CC[C@@H]4[C@@]5(C)CCCNC(C)(C)[C@@H]5CC[C@]43C)[C@@H]12 | no
* Cc1ccc2[nH]c(=S)n(-c3ccc(S(=O)(=O)Nc4ccc(Cl)nn4)cc3)c(=O)c2c1 | no
* CCN(CC)CCCCCCNc1cc(OC)cc2cccnc12 | no
* COc1ccc(C(=O)/C=C/c2ccc(OCc3ccccc3)c(OC)c2)cc1OC | no
* Clc1cc(Cl)cc(N2N=C(c3cccc(Nc4ccncc4)c3)CC2c2ccc(Br)cc2)c1 (stereo unspecified) | no
* CC(=O)OCC(=O)[C@@]1(O)CC[C@H]2[C@@H]3CC(=C(Br)Br)C4=CC(=O)CC[C@]4(C)[C@H]3C(=O)C[C@@]21C | no
* CNC(=O)Nc1ccc(-c2nc(N3CCOCC3)nc3c2cnn3C2CCOCC2)cc1 | yes
* Cc1cccc(Oc2ccc(Nc3ncnc4ccc(NC(=O)CN(C)C)cc34)cc2Cl)c1 | no
* CC(C)(O)C1CCCN1C(=O)c1ccccc1I (stereo unspecified) | no
* O=C(NCCc1ccccn1)OCc1nc2nc(Cl)nc(N3CCOCC3)c2[nH]1 | no
* Cc1[nH]n(C(=O)c2ccncc2)c(=O)c1N=Nc1ccc(F)c(Cl)c1 | no
* Cc1ccc2[nH]c(=O)cc(-n3nncc3COc3ccc(C=O)cc3)c2c1 | no
* Cn1c(COC(=O)NCCc2ccccn2)nc2c(N3CCOCC3)nc(Cl)nc21 | no
* COc1cc(NCCN(CC(C)C)C2CCCC2)c2ncccc2c1 | no
* COc1ccc(-c2nc(N/N=C/c3c[nH]c4ccccc34)nc(N3CCOCC3)c2C#N)cc1 | no
* CC1NC(=S)NC(=O)/C1=C/c1cc(=O)oc2c1ccc1ccccc12 (stereo unspecified) | no
* CCCCCCN(C)Cc1ccc(OCCOc2ccc(CN(C)CCCCCC)cc2)cc1 | no
* NC(=O)c1ccc[n+](CC(=O)N2CCN(c3cc4c(cc3F)c(=O)c(C(=O)O)cn4C3CC3)CC2)c1 | no
* C=Cc1cc[n+](CCCCCCCCCCCC)cc1 | no
* COc1ccccc1C(C[N+](=O)[O-])c1c(-c2ccccc2)[nH]c2cc(C)ccc12 (stereo unspecified) | no
* Nc1c(C(=O)Nc2cccc3ccncc23)sc2nc3c(cc12)C(=O)CCC3 | no
* O=S(=O)(NCCCNc1nccc(-c2c(-c3cccc(O)c3)nc3occn23)n1)c1ccc(Br)cc1 | no
* O=C1Nc2c(ccc(Cl)c2Cl)/C1=C/c1ccc(F)cc1 | no
* COc1cc(CNC(=O)CCCCC[P+](c2ccccc2)(c2ccccc2)c2ccccc2)c(OC)c2c1OCO2 | no
* O=C(O)CCCCCCCCCCCCCCC(=O)O | no
